All figures here come from patent US20230348616A1.

Molecular target: T1, HLA-A*0201/β2-microglobulin/NY-ESO peptide complex (human, biotinylated with E. coli biotin ligase at the added recognition sequence (biotinylated form used in the ELISA))
T1 construct: also called HLA/NY-ESO; HLA-A2/NY-ESO
Assay: SPR (Biacore T200), scFv captured by anti-His antibody, HLA/NY-ESO as analyte, single cycle kinetics
parameter-measured: Kd (nM)
Please give a number only; it is taken to be in nM.

NYA-2143 (scFv) scFv: GEVQLVESGGGVVQPGRSLTPSCSASGFSIRSYDIHWVRLAPGKGLEWVATISYDGSQKYFADSVKGRFTIFRDESENMVYLQMSGLRVEDTAVYHCARGSSGHYEAFDIWGQGTMVTVSSGGGGSGGGGSGGGGSQSVLTQPPSVSAAPGQKVTISCSGSSSNIGNWYVSWYQRLPGTAPKLLIYDNNKRPSGIPDRFSGSKSGTSATLGITGLQTGDEADYYCGTWDSSLSAPWVFGGGTKVTVLGAAAGAGGDYKDDDDKGAAAHHHHHH :: 0.9

Please examine the following record next.
Task: Which Kd value belongs to NYA-2061 (scFv, also called NYA-2061 tag adduct) scFv: GEVQLVESGGGLVQPGGSLRLSCAASGFSIRSYDIHWVRQAPGKGLEWVATISYDGSQKYYADSVKGRFTISRDESKNTLYLQMNSLRAEDTAVYHCARGSSGHYEAFDIWGQGTLVTVSSGGGGSGGGGSGGGGSQSVLTQPPSASGTPGQRVTISCSGSSSNIGNWYVSWYQQLPGTAPKLLIYDNNKRPSGVPDRFSGSKSGTSASLAISGLQSEDEADYYCGTWDSSLSAPWVFGGGTKLTVLGAAAGAGGDYKDDDDKGAAAHHHHHH ?
Result: 1.5
